Assay procedure: Human plasma metabolism
Type: in vitro ADME
Assay conditions: read-out: Human Plasma Metabolism (t½)
Reported metric: half-life (min)

>  <Compound>
N=C(NCCCCc1ccc(OC[C@H](N)C(N)=O)cc1)NC(=O)c1nc(Cl)c(N)nc1N [Comparative Example 4]

>  <Data value>
37

$$$$

* * *

Assay procedure: Log D
Format: physicochemical
Reported metric: logD

>  <Compound>
N=C(NCCCCc1ccc(OC[C@H](N)C(N)=O)cc1)NC(=O)c1nc(Cl)c(N)nc1N [Comparative Example 4]

>  <Reported metric>
logD

>  <Data value>
0.64

$$$$

* * *

Assay procedure: Human plasma protein binding
Format: in vitro ADME

>  <Record smiles>
N=C(NCCCCc1ccc(OC[C@H](N)C(N)=O)cc1)NC(=O)c1nc(Cl)c(N)nc1N

>  <fraction unbound>
0.24

$$$$
